molecular target: PARP-1 full-length (human, UniProt P09874 2-1014); assay: SPR; veliparib (10 mM [sic]); SPR (Biacore 8K): 20 mM HEPES, 150 mM NaCl, 1 mM TCEP, 0.05% Tween-20, 1% (v/v) (component not given), pH not stated, 25 C; PARP-1 0.078-20 nM; n = 6; details: protein: recombinant; tags: N-terminal 6His-6Lys tag, TEV site; label: biotin (internal dT, streptavidin chip); dumbbell of two hairpins with T7 loops, nick between the 5' and 3' ends; stems 13 and 12 bp
Sequence (P09874 2-1014): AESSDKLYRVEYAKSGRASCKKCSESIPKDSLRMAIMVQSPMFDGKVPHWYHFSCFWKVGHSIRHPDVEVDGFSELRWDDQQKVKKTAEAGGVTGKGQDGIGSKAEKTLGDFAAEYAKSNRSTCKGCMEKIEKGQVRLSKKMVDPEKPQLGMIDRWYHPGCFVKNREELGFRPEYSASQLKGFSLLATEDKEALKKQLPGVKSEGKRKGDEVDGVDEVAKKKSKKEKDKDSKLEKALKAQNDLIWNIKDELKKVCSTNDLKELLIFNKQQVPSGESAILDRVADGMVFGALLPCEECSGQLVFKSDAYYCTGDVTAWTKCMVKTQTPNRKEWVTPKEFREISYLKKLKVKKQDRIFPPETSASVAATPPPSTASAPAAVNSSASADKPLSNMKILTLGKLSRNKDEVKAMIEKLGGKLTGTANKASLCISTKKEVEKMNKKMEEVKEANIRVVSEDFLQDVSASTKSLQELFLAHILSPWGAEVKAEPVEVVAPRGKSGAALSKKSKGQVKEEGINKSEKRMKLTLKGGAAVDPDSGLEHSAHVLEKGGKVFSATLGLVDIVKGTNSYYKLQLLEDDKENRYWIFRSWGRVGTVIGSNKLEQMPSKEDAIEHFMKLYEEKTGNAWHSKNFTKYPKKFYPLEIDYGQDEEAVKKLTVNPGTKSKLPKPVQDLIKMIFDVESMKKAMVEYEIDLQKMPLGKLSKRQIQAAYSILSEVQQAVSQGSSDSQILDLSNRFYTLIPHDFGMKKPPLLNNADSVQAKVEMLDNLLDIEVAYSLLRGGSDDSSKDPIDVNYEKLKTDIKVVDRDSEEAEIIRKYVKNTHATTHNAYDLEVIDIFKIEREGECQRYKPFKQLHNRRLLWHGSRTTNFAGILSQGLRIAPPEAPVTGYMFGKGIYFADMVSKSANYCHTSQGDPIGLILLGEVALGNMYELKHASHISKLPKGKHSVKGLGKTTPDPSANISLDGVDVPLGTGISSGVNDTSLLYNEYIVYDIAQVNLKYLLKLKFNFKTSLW
MEASUREMENT TYPE: Kd
# number then unit; no other words

*Q* Answer with reported Kd of biotinylated hairpin DNA (dumbbell single-strand break model) (structured_DNA, biotin-dT at position 17 (written as T; between S1 and S2)) DNA: GACAACCCGGCGCTTTTTTTGCGCCGGGTTGTCTGGCCCAGTTCGTTTTTTTCGAACTGGGCCA
*A* 4.2 nM
